assay: in vitro; conditions: rat, gh3-tre-luc cells, AC50 (uM) modified / 1000
Hi there, I'd appreciate the recorded CC50 at 24 h for every entry that follows.

Prompt: Given the compound c1ccc(Sc2ccccc2)cc1 [Diphenyl sulfide] , write its reported CC50 at 24 h.
Response: > 90 µM

Prompt: Supply measured CC50 at 24 h of CCCCCCCCCOC(C)=O [Nonyl acetate] in your reply.
Response: > 90 µM

Prompt: Fill in CC50 at 24 h for record O=[N+]([O-])c1c(Cl)c(Cl)c(Cl)c(Cl)c1Cl
Response: > 90 µM

Prompt: Give the reported value of CC50 at 24 h for this record: CSCC[C@H](NC(=O)[C@H](Cc1ccc(OS(=O)(=O)O)cc1)NC(=O)[C@@H](N)CC(=O)O)C(=O)NCC(=O)N[C@@H](Cc1c[nH]c2ccccc12)C(=O)N[C@@H](CCSC)C(=O)N[C@@H](CC(=O)O)C(=O)N[C@@H](Cc1ccccc1)C(N)=O [Sincalide]
Response: > 50 µM

Prompt: Name the recorded CC50 at 24 h of the item CCCCCCCCCCCCCCCC(=O)O in your answer.
Response: > 90 µM

Prompt: Give CC50 at 24 h for the following compound: Cc1ccc(Nc2c(F)cccc2Cl)c(CC(=O)O)c1
Response: > 50 µM

Prompt: Provide only the value of recorded CC50 at 24 h for COC(=O)c1ccccc1Cl [Methyl 2-chlorobenzoate]
Response: > 90 µM

Prompt: Return the recorded CC50 at 24 h value; entry: CCCCCCC1(C)CCC(=O)O1 (centres unmarked) [Dihydrojasmone lactone]
Response: > 90 µM

Prompt: Give the reported value of CC50 at 24 h for this record: CC(=O)Nc1ccc(S(=O)(=O)Nc2ccc([N+](=O)[O-])cc2)cc1
Response: > 50 µM

Prompt: Please indicate CC50 at 24 h recorded for C=CC(C)(O)CCCC(C)CCCC(C)CCCC(C)C (centres unmarked)
Response: > 90 µM

Prompt: Fill in CC50 at 24 h for record CN(C)[C@@H]1C(=O)C(C(=O)NCNCCCC[C@H](N)C(=O)O)=C(O)[C@@]2(O)C(=O)C3=C(O)c4c(O)cccc4[C@@](C)(O)[C@H]3C[C@@H]12
Response: > 20 µM

Prompt: Give the value of CC50 at 24 h reported for the following: Cc1ccccc1CO[C@@H]1C[C@@]2(C(C)C)CC[C@]1(C)O2 (racemic)
Response: > 90 µM

Prompt: Please look at this compound and report its CC50 at 24 h: O=C(Cl)c1ccc(C(=O)Cl)cc1 [1,4-Benzenedicarbonyl dichloride]
Response: > 90 µM

Prompt: Supply reported CC50 at 24 h belonging to this compound: CC1=C(C)C(=O)C(C(CCCCCC(=O)O)c2ccccc2)=C(C)C1=O (racemic)
Response: > 50 µM

Prompt: Entry CC(C)CCCCCCCCCCCCCCC(=O)O needs its CC50 at 24 h filled in; supply it.
Response: > 90 µM

Prompt: Fill in reported CC50 at 24 h for this entry: O=C(N/N=C/c1ccc([N+](=O)[O-])o1)c1cc([N+](=O)[O-])cc([N+](=O)[O-])c1O
Response: 32.5 µM

Prompt: For the compound NS(=O)(=O)c1cc2c(cc1Cl)N=C(CSCc1ccccc1)NS2(=O)=O [Benzthiazide] , give its reported CC50 at 24 h.
Response: > 20 µM

----------
assay: in vitro; conditions: rat, gh3-tre-luc cells, AC50 (uM) modified / 1000
Counter-ions that a name gives are not always drawn.
Measured Endpoint: CC50 at 24 h

Prompt: In one line, give reported CC50 at 24 h of the entry C=C(C)CN(CC)c1c([N+](=O)[O-])cc(C(F)(F)F)cc1[N+](=O)[O-] .
Response: > 90 µM

Prompt: Name the recorded CC50 at 24 h of the item O=C(N[C@H]1CN2CCC1CC2)c1cc2ccoc2cn1 in your answer.
Response: > 90 µM

Prompt: For the molecule CC(CCc1ccc(O)cc1)NCC(O)c1ccc(O)cc1 (stereo not drawn) [Ractopamine hydrochloride] , give its reported CC50 at 24 h.
Response: > 50 µM

Prompt: Please list CC50 at 24 h recorded for the molecule CC(=O)N[C@@H](Cc1ccc(O)cc1)C(=O)O
Response: > 50 µM

Prompt: Give a short answer stating reported CC50 at 24 h for Oc1cc(Cl)cc(Cl)c1 .
Response: > 90 µM

Prompt: Dear colleague, please send me the reported CC50 at 24 h for CCCCc1cc2c(=O)c(C(=O)OC)c[nH]c2cc1OCc1ccccc1 [Nequinate] when you can.
Response: > 50 µM

Prompt: Find the measured CC50 at 24 h of CCCCN(CC)c1c([N+](=O)[O-])cc(C(F)(F)F)cc1[N+](=O)[O-] and report it.
Response: > 90 µM

Prompt: Given the molecule O=S(=O)(O)c1ccccc1 , write its reported CC50 at 24 h.
Response: > 90 µM

Prompt: Complete the entry with CC50 at 24 h for NC(=O)N(O)[C@@H]1C=C[C@H](Oc2cccc(Oc3ccc(F)cc3)c2)C1
Response: > 90 µM

Prompt: Item CCCCCCCN : provide CC50 at 24 h
Response: > 90 µM

Prompt: State its CC50 at 24 h: COC(=O)[C@@H](N)Cc1ccc(O)c(O)c1 [Methyl L-DOPA hydrochloride]
Response: 19.9 µM

Prompt: Dear colleague, please send me the reported CC50 at 24 h for C1CCCNCC1 when you can.
Response: > 100 µM

Prompt: Using known records, supply CC50 at 24 h for O=C(O)c1ccc(S(=O)(=O)N(Cl)Cl)cc1
Response: > 90 µM

Prompt: Determine from records and report CC50 at 24 h for O=C(O)/C=C/c1ccccc1
Response: > 90 µM

Prompt: Hello, please tell me recorded CC50 at 24 h for this one: CCCCC1CCC(=O)O1 (stereo not drawn) [4-Octanolide]
Response: > 90 µM

Prompt: State its CC50 at 24 h: O=C(O)/C=C\C(=O)O
Response: > 90 µM

Prompt: Indicate the recorded CC50 at 24 h value for this molecule: CC1(C)CC(N)CC(C)(C)N1
Response: > 90 µM

Prompt: Indicate the recorded CC50 at 24 h value for this molecule: O=[N+]([O-])c1cccc2ccccc12
Response: > 90 µM

Prompt: For the molecule CC(=O)OCC(=O)[C@@]1(O)CC[C@H]2[C@@H]3C[C@H](C)C4=CC(=O)C=C[C@]4(C)[C@H]3[C@@H](O)C[C@@]21C [Methylprednisolone acetate] , give its reported CC50 at 24 h.
Response: > 50 µM

Prompt: Tell me its CC50 at 24 h given N#CC(CCc1ccc(Cl)cc1)(Cn1cncn1)c1ccccc1 (stereo not drawn) as the entry.
Response: 49.1 µM

Prompt: In one line, give reported CC50 at 24 h of the entry Cc1nc(C)nc(N2C[C@@H](C)N(c3ccnc([C@@H](C)O)n3)[C@@H](C)C2)n1 .
Response: > 50 µM

Prompt: Please look at this molecule and report its CC50 at 24 h: COc1ccc(CN2CCN(C(c3ccc(F)cc3)c3ccc(F)cc3)CC2)c(OC)c1OC [Lomerizine dihydrochloride]
Response: 10.5 µM

Prompt: Provide CC50 at 24 h value for the following molecule: CCC(C)C1N=C(C)C(C)S1 (stereo not drawn)
Response: > 90 µM

Prompt: For the molecule CC(=O)[C@H]1CC[C@H]2[C@@H]3CCC4=CC(=O)CC[C@]4(C)[C@H]3CC[C@]12C , give its measured CC50 at 24 h value.
Response: 85.9 µM

Prompt: Answer with the recorded CC50 at 24 h for the molecule listed here: Cc1ccc(C)c([N+](=O)[O-])c1
Response: > 90 µM

Prompt: Return CC50 at 24 h (reported value) for this molecule: CCCCCCc1ccc(O)cc1O
Response: 61 µM

Prompt: Look up CC50 at 24 h of CCCCN(N=O)C(=N)N[N+](=O)[O-] and report it.
Response: 56.4 µM

Prompt: Answer with the recorded CC50 at 24 h for the molecule listed here: N=C(N)c1ccc2cc(OC(=O)c3ccc(N=C(N)N)cc3)ccc2c1 [Nafamostat mesylate]
Response: > 50 µM

Prompt: Supply CC50 at 24 h value. Item: CCCCCCC(C)OC(=O)CCCCC(=O)OC(C)CCCCCC (stereo not drawn) [Diisooctyl adipate]
Response: > 90 µM

Prompt: Please indicate CC50 at 24 h recorded for CC(C)Nc1ccccc1
Response: > 90 µM

Prompt: Return the recorded CC50 at 24 h value; entry: Cc1ccc2c(c1)CCCN2 [6-Methyl-1,2,3,4-tetrahydroquinoline]
Response: > 90 µM

Prompt: Please list CC50 at 24 h recorded for the molecule CC(=O)OC1CN2CCC1CC2 (stereo not drawn)
Response: > 50 µM

Prompt: Look up and report measured CC50 at 24 h for this entry: CCN(CC)C1CCCCC1
Response: > 90 µM

Prompt: Please give the documented CC50 at 24 h of CC(C)=CCCC(C)CCOC=O (stereo not drawn) [3,7-Dimethyloct-6-en-1-yl formate]
Response: > 90 µM

Prompt: Quick one: give measured CC50 at 24 h for O=c1n(CCO)c(=O)n(CCO)c(=O)n1CCO [Tris(2-hydroxyethyl) isocyanurate]
Response: > 90 µM

Prompt: Could you please provide reported CC50 at 24 h for CCC1(C)CC(=O)NC1=O (stereo not drawn) [Ethosuximide] ? Thanks!
Response: > 50 µM

Prompt: Using known records, supply CC50 at 24 h for Oc1cc(Cl)ccc1Cl
Response: > 90 µM

Prompt: Could you please provide reported CC50 at 24 h for O=C(O)c1nc(Cl)ccc1Cl ? Thanks!
Response: > 90 µM

Prompt: Retrieve CC50 at 24 h measured for CCCCCCOC(=O)CCC [Hexyl butyrate] and print it.
Response: > 90 µM
